- Tested on: peptide-producing enzyme (Mono S fraction) from Empedobacter brevis strain FERM BP-8113
- measurement-protocol: Enzyme substrate specificity (1)-(10), (13), (14)
- Type: biochemical
- cond: L or D amino acid methyl ester hydrochloride 100 mM, L or D amino acid 150 mM, pH 9.0, 25° C., 3 hours
Non-standard residues stand in square brackets, D forms with d. Residues, ends and D or L forms follow the SMILES beside them.
So I've got a bunch of compounds here, and I need their Produced peptide values.
Numbers only, in mM.

Here's what some known entries look like.
compound | assay-target | Produced peptide (mM)
CC(C)[C@@H](N)C(=O)N[C@H](CO)C(=O)O [D-Val-D-Ser] (H-[dV]-[dS]-OH) | peptide-producing enzyme (Mono S fraction) from Empedobacter brevis strain FERM BP-8113 | 0.5
C[C@H](N)C(=O)N[C@H](CCC(N)=O)C(=O)O [L-Ala-D-Gln] (H-Ala-[dQ]-OH) | peptide-producing enzyme (Mono S fraction) from Empedobacter brevis strain FERM BP-8113 | 0.3

Batch of 4 compounds: report Produced peptide for each.
1. CSCC[C@@H](N)C(=O)N[C@@H](CO)C(=O)O [D-Met-L-Ser] (H-[dM]-Ser-OH)
2. CC(C)[C@H](N)C(=O)N[C@H](CO)C(=O)O [L-Val-D-Ser] (H-Val-[dS]-OH)
3. CSCC[C@H](N)C(=O)N[C@H](CO)C(=O)O [L-Met-D-Ser] (H-Met-[dS]-OH)
4. C[C@H](O)[C@@H](N)C(=O)N[C@H](CO)C(=O)O [D-Thr-D-Ser] (H-[dT]-[dS]-OH)

1. 5.1
2. 1.4
3. 1.9
4. 1.1

Batch of 5 compounds: report Produced peptide for each.
1. C[C@@H](N)C(=O)N[C@@H](CO)C(=O)O [D-Ala-L-Ser] (H-[dA]-Ser-OH)
2. C[C@@H](N)C(=O)N[C@H](CO)C(=O)O [D-Ala-D-Ser] (H-[dA]-[dS]-OH)
3. N[C@H](CO)C(=O)N[C@H](CO)C(=O)O [D-Ser-D-Ser] (H-[dS]-[dS]-OH)
4. C[C@H](N)C(=O)N[C@H](CO)C(=O)O [L-Ala-D-Ser] (H-Ala-[dS]-OH)
5. C[C@H](O)[C@@H](N)C(=O)N[C@@H](CO)C(=O)O [D-Thr-L-Ser] (H-[dT]-Ser-OH)

[20.3, 0.2, 2.5, 5.4, 1.0]

====

- System: peptide-producing enzyme (Mono S fraction) from Empedobacter brevis strain FERM BP-8113
- measurement-protocol: Enzyme substrate specificity (1)-(10), (13), (14)
- Assay type: biochemical
- cond: L-amino acid methyl ester hydrochloride 100 mM, L-amino acid 150 mM, pH 9.0, 25° C., 3 hours
Residues, ends and D or L forms follow the SMILES beside them.
Decide using Produced peptide alone. Strictly below 10 mM: 1 (yes). Equal to or above 10 mM: 0 (no).

Here's what some known entries look like.
molecule | assigned-label
N[C@@H](CO)C(=O)N[C@@H](Cc1ccccc1)C(=O)O | 0 (no)
CC(C)[C@H](N)C(=O)N[C@@H](CO)C(=O)O [L-Val-L-Ser] (H-Val-Ser-OH) | 0 (no)
CSCC[C@H](N)C(=O)N[C@@H](CO)C(=O)O [L-Met-L-Ser] (H-Met-Ser-OH) | 0 (no)

Hello, is Produced peptide of the following molecule strictly smaller than 10 mM? C[C@@H](O)[C@H](N)C(=O)NCC(=O)O [L-Thr-Gly] (H-Thr-Gly-OH)
1 (yes)
